Origin of measurements: patent US5512687A

test system: Jurkat cell line; test: in vitro toxicity study, cytotoxicity (Jurkat cell); format: cell-based
Catalogue of Cytotoxicity (Jurkat cell) IC50 readings, one per entry.

Smiles Str	Readout Type	Recorded Measurement
Cn1cc[n+]([Ru-3]([n+]2ccn(C)c2)([n+]2ccn(C)c2)([n+]2ccn(C)c2)([n+]2ccn(C)c2)[n+]2ccn(C)c2)c1.F[P-](F)(F)(F)(F)F.F[P-](F)(F)(F)(F)F.F[P-](F)(F)(F)(F)F	Cytotoxicity (Jurkat cell) IC50	115 µg/mL
[Cl-].[Cl-].c1c[n+]([Ru-4]([n+]2cc[nH]c2)([n+]2cc[nH]c2)([n+]2cc[nH]c2)([n+]2cc[nH]c2)[n+]2cc[nH]c2)c[nH]1	Cytotoxicity (Jurkat cell) IC50	200 µg/mL
Cn1cc[n+]([Ru-4]([n+]2ccn(C)c2)([n+]2ccn(C)c2)([n+]2ccn(C)c2)([n+]2ccn(C)c2)[n+]2ccn(C)c2)c1.[Cl-].[Cl-]	Cytotoxicity (Jurkat cell) IC50	2000 µg/mL

Next molecule, please.
[ask] Would you mind telling me what Cytotoxicity (Jurkat cell) IC50 value was observed for "Cn1cc[n+]([Ru-3]([n+]2ccn(C)c2)([n+]2ccn(C)c2)([n+]2ccn(C)c2)([n+]2ccn(C)c2)[n+]2ccn(C)c2)c1.[Cl-].[Cl-].[Cl-]" ?
[reply] > 300 µg/mL
